System: MDA-N
Assay: NCI tumour cell line growth inhibition, 48 h
Activity calls are given as the source filed them. No stated cut-off is given here; in the data, active = GI50 up to about 1.1 µM and inactive = higher.
Listing of entries alongside the reported GI50.

Use these answered entries as a reference point.
CCC1C(C#N)=C(N)OC2=C1C(=O)CC(C)(C)C2 (configuration not stated)    > 100 µM (inactive)
[O-][S+](Nc1ccccc1)c1ccc(Cl)cc1 (configuration not stated)    > 100 µM (inactive)

Tested on MDA-N, the item CCOC(=O)C(=CNC(=S)N/N=C1\C(=O)Nc2ccccc21)C(=O)OCC showed GI50 equal to > 100 µM (inactive)

Tested on MDA-N, the item COc1ncc(C#CC(=O)c2ccccc2)c(OC)n1 showed GI50 equal to 1.71 µM (inactive)

Tested on MDA-N, the item CC1(C)[C@@H]2CC[C@@]1(C)CN(CCC[N+](C)(C)C)C2 showed GI50 equal to > 100 µM (inactive)

Tested on MDA-N, the item Sc1nnc(CCCCCCCCc2nnc(S)o2)o1 showed GI50 equal to > 100 µM (inactive)

Tested on MDA-N, the item O=[N+]([O-])/C(C(Cl)=C(Cl)Cl)=C(\Nc1cccc2cccnc12)SCc1ccccc1 showed GI50 equal to 31.1 µM (inactive)

Tested on MDA-N, the item CCOP(=O)(O)C1C(CO)OC(n2ccc(=O)[nH]c2=O)C1O (configuration not stated) showed GI50 equal to > 100 µM (inactive)

Tested on MDA-N, the item OC(CC1CCCCN1)c1ccc2c(c1)oc1ccccc12 (configuration not stated) showed GI50 equal to 40.8 µM (inactive)

Tested on MDA-N, the item O=C(O)CCNC(=O)c1cc(N(CCBr)CCBr)c([N+](=O)[O-])cc1[N+](=O)[O-] showed GI50 equal to > 100 µM (inactive)

Tested on MDA-N, the item O=C(Nc1ccc(Cl)c(Cl)c1)C(=O)C(C1OC(=O)c2ccccc21)[N+](=O)[O-] (configuration not stated) showed GI50 equal to > 100 µM (inactive)
